conditions: 333.15 K; 101.33 kPa; Liquid; Vibrating tube method
measurement_kind: mass density (kg/m3)
Value expressed in kg/m3; do not type the unit.

INSERT INTO results (compound, result_units, observed_value) VALUES
  ('CCCCCCn1cc[n+](C)c1.F[B-](F)(F)F [1-hexyl-3-methylimidazolium tetrafluoroborate]', 'kg/m3', 1121),
  ('CCCCCCCC[n+]1ccn(C)c1.F[P-](F)(F)(F)(F)F [1-octyl-3-methylimidazolium hexafluorophosphate]', 'kg/m3', 1210),
  ('CCn1cc[n+](C)c1.F[B-](F)(F)F [1-ethyl-3-methylimidazolium tetrafluoroborate]', 'kg/m3', 1254);

Shift focus to the following entry.
Exam item: Recorded mass density for CCCCCCn1cc[n+](C)c1.F[P-](F)(F)(F)(F)F [1-hexyl-3-methylimidazolium hexafluorophosphate] , please?
Marked response: 1265.1
